The reported measurements were obtained from the supplement of paper PMC10065799.

Target: Hck (UniProt P08631)
Sequence (P08631 whole entry, looked up): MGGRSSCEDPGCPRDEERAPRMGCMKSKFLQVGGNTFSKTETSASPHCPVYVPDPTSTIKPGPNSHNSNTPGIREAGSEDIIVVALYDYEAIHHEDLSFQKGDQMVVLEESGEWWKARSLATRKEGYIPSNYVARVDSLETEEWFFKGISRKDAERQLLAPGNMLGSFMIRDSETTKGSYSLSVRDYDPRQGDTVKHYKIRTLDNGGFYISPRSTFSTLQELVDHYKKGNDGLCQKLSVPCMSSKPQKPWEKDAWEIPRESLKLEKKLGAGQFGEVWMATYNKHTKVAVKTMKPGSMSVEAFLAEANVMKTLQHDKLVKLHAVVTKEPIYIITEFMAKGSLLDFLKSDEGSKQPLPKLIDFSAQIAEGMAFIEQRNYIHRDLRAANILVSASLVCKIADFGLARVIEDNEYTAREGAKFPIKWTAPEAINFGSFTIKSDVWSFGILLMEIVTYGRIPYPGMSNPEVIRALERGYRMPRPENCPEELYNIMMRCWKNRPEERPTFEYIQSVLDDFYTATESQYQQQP
Assay: phosphorylation enrichment, bacterial display (enrichment ratio); higher = better substrate or ligand; peptides without Tyr show the background;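 note: 11-residue human phosphosite peptides and single-mutation variants displayed on the E. coli surface, counted by deep sequencing, each peptide's frequency after selection divided by its frequency in the unselected input library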;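 note: frequency after pTyr selection over input frequency; kinase dosed for 20-30% of maximal phosphorylation in three min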

sequence code | test target | phosphorylation enrichment
SFCFRYRCAPR [SUMF1_Y344_A348P_YF] | Hck (UniProt P08631) | 0.633
SVLVPYEPPEV [TP53_Y220_V217L] | Hck (UniProt P08631) | 0.651
TEAGNYKLCFD [TMED1_Y103_D102N] | Hck (UniProt P08631) | 0.549
YETSHYLASPD [CTNND2_Y1217_P1218L] | Hck (UniProt P08631) | 0.554
WEPFGFAVTRC [PTPRT_Y412_Y412F] | Hck (UniProt P08631) | 0.456
KWTVDYLSQVG [TYW5_Y48] | Hck (UniProt P08631) | 0.462
SLDLSYFPTSS [EMD_Y181_YF] | Hck (UniProt P08631) | 0.432
RQSTLYSFFPT [MSH6_Y8_K13T] | Hck (UniProt P08631) | 9.63
RREQDYTNLPS [CSF1R_Y923_R921Q] | Hck (UniProt P08631) | 0.492
EEVGIYRMSGV [BCR_Y1089_V1091M] | Hck (UniProt P08631) | 5.64
TRSFDYTEGGD [FGF7_Y58_M59T_YF] | Hck (UniProt P08631) | 0.501
QRRLVYYERGA [RYR1_Y245_G248R] | Hck (UniProt P08631) | 0.53
GVRFIYTIDGS [DCX_Y105_YF] | Hck (UniProt P08631) | 0.674
PDSVDYRKKGY [CTSK_Y121] | Hck (UniProt P08631) | 0.78
MCITRYERESQ [PRNP_Y218_Q217R] | Hck (UniProt P08631) | 0.469
KPVDTYFDSTR [DYNC2H1_Y2230_M2227V_YF] | Hck (UniProt P08631) | 0.565
NPQKSYFILLF [WAS_Y83_R86L_YF] | Hck (UniProt P08631) | 0.43
FSPFDYQPCLA [TNS1_Y798_YF] | Hck (UniProt P08631) | 0.66
DCAAIYGNEPE [AKR1A1_Y50] | Hck (UniProt P08631) | 0.897
EEGENYQKGER [CHGB_Y173] | Hck (UniProt P08631) | 0.467
YKEDPYLVVNP [MCM6_Y810_E806K] | Hck (UniProt P08631) | 0.591
PAQAAYQKVVA [HBB_Y131_V127A] | Hck (UniProt P08631) | 0.542
IGEGTYRQVFK [CDK13_Y716_G717R_YF] | Hck (UniProt P08631) | 0.634
MGSYNYLGFAW [SPTLC2_Y178_R183W] | Hck (UniProt P08631) | 1.4
LARDMYDKEFF [MET_Y1230_YF] | Hck (UniProt P08631) | 0.539
QTSTDYDIRFY [CSNK2A1_Y131_L128S] | Hck (UniProt P08631) | 0.89
QDEHGYISWCF [HSPB1_Y133_R136W] | Hck (UniProt P08631) | 0.944
FQGRRYDCDCD [CRYGS_Y21] | Hck (UniProt P08631) | 0.5
KPPPTYESEEE [BRD4_Y599] | Hck (UniProt P08631) | 0.641
